Format: in vivo, Sprague-Dawley rats
STATED_CONDITIONS: male, Sprague-Dawley, rat, plasma, po, 80 mg/kg, T 1/2 z, Normal rats, oral Gandi capsule 80 mg kg^-1, plasma, n = 6, mean ± SD
MEASUREMENT_TYPE: half-life (min)

>>> numeric_value("O=C(O)[C@H]1O[C@@H](Oc2cc3oc(-c4ccccc4)cc(=O)c3c(O)c2O)[C@H](O)[C@@H](O)[C@@H]1O")
567

(A) COc1c(O)cc(O)c2c(=O)cc(-c3ccccc3)oc12
(B) COC(=O)C1=CO[C@@H](O[C@@H]2O[C@H](CO)[C@@H](O)[C@H](O)[C@H]2O)[C@@H]2[C@@H](C)[C@@H](O)C[C@H]12
**Query** Please indicate which has the smaller reported half-life: A , or B . When you have decided, please share the label of that item.
**Result** B

Data credit: paper PMC9078286
